Assay: Kinetic solubility in pH 2 hydrochloride buffer at 1 to 250 uM after 2 hrs
Format: physicochemical
Conditions: read-out: Kinetic_solubility
observationType: solubility kinetic at 2 h

{"columns": ["compoundSmiles", "valueReported"],
 "data": [
  ["CCOCc1cn(-c2ccc(Cl)cc2)nn1", "< 250 µM"]
]}

###

Target: P2X purinoceptor 7 (Mus musculus)
Assay: Antagonist activity at P2X7 receptor in Swiss mouse peritoneal macrophages assessed as inhibition of ATP-induced propidium iodide uptake at 10 uM after 30 mins by FLIPR assay relative to 1 mM ATP
Here, each record is paired with measured inhibition data.
observationType: inhibition

{"columns": ["compoundSmiles", "valueReported"],
 "data": [
  ["CC(=O)OCc1cn(-c2cc(Cl)cc(Cl)c2)nn1", "65.2%"],
  ["CCCCOCc1cn(-c2ccccc2)nn1", "78.1%"],
  ["O=C(OCc1cnn(-c2ccccc2)n1)C1CCCC1", "29.6%"],
  ["CCCCOCc1cn(-c2ccc(OC)cc2)nn1", "31.4%"],
  ["CCOCc1cn(-c2cc(Cl)cc(Cl)c2)nn1", "36.5%"],
  ["O=Cc1cn(-c2ccccc2)nn1", "84.6%"],
  ["O/N=C/c1cn(-c2cc(Cl)cc(Cl)c2)nn1", "58%"],
  ["OCc1cnn(-c2ccccc2)n1", "84.2%"],
  ["OCc1cn(-c2ccc(Cl)cc2)nn1", "22.5%"],
  ["CCCOCc1cnn(-c2ccccc2)n1", "26.6%"],
  ["CC(=O)OCc1cn(-c2ccc(Cl)cc2)nn1", "23.2%"],
  ["OCc1cn(-c2ccccc2)nn1", "10.9%"],
  ["CC(=O)OCc1cn(-c2ccccc2)nn1", "84%"],
  ["O/N=C/c1cnn(-c2ccccc2)n1", "83%"],
  ["O=C(OCc1cn(-c2ccccc2)nn1)c1ccccc1", "32.1%"],
  ["CCCCCCCCCC(=O)OCc1cnn(-c2ccccc2)n1", "29.5%"],
  ["COc1ccc(-n2cc(C=O)nn2)cc1", "44.3%"],
  ["O=C(OCc1cnn(-c2ccccc2)n1)c1ccccc1", "81.3%"],
  ["CCCCCC(=O)OCc1cn(-c2ccccc2)nn1", "44.6%"],
  ["CCCCOCc1cn(-c2cc(Cl)ccc2Cl)nn1", "79.8%"],
  ["CCCCOCc1cn(-c2ccc(Cl)cc2)nn1", "35.8%"],
  ["O=C(OCc1cn(-c2cc(Cl)cc(Cl)c2)nn1)c1ccccc1", "14.2%"],
  ["CCCCOCc1cnn(-c2ccccc2)n1", "37.1%"],
  ["CCCOCc1cn(-c2ccc(OC)cc2)nn1", "15.6%"],
  ["CCOCc1cnn(-c2ccccc2)n1", "70%"],
  ["CCCCCCCCCC(=O)OCc1cn(-c2ccc(Cl)cc2)nn1", "76%"],
  ["CCCCCCCCCC(=O)OCc1cn(-c2cc(Cl)ccc2Cl)nn1", "9.86%"],
  ["COc1ccc(-n2cc(CO)nn2)cc1", "86.3%"],
  ["CCCOCc1cn(-c2cc(Cl)ccc2Cl)nn1", "24%"],
  ["CCCOCc1cn(-c2ccccc2)nn1", "25.1%"],
  ["O=C(OCc1cn(-c2cc(Cl)ccc2Cl)nn1)C1CCCC1", "20.6%"],
  ["O=C(OCc1cn(-c2ccc(Cl)cc2)nn1)c1ccccc1", "60.6%"],
  ["CC(=O)OCc1cn(-c2cc(Cl)ccc2Cl)nn1", "76.6%"],
  ["CCCOCc1cn(-c2cc(Cl)cc(Cl)c2)nn1", "24%"],
  ["O/N=C/c1cn(-c2ccccc2)nn1", "58%"],
  ["O=Cc1cnn(-c2ccccc2)n1", "31.5%"],
  ["CCOCc1cn(-c2cc(Cl)ccc2Cl)nn1", "75.5%"]
]}

###

Target: P2X purinoceptor 7 (Homo sapiens)
Sequence (Q99572 whole entry): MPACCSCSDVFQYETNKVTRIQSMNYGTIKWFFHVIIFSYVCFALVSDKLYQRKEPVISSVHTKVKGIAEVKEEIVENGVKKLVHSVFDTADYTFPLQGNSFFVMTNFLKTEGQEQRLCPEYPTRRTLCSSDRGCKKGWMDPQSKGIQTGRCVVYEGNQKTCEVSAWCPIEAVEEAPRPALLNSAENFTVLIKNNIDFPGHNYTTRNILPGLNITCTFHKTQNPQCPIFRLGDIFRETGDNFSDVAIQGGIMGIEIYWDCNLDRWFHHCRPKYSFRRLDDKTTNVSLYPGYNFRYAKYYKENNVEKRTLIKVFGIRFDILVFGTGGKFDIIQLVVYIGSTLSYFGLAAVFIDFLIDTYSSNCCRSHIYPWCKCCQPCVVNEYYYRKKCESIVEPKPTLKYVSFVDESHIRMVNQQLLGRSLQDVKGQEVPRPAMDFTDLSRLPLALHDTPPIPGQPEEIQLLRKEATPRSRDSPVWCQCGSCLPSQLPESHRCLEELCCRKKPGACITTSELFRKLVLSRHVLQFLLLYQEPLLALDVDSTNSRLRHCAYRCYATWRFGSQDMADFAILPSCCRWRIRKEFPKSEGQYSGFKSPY
Test: Antagonist activity at human P2X7 receptor expressed in human 1321N1 cells assessed as reduction in agonist-induced intracellular Ca2+ levels preincubated for 3 mins followed by agonist addition measured up to 2 mins by Fluo-4 dye-based FLIPR assay
Assay type: cell-based
observationType: IC50

{"columns": ["compoundSmiles", "valueReported"],
 "data": [
  ["Clc1cccc(-n2nnnc2NCc2ccccc2Oc2ccccn2)c1Cl", "20 to 150 nM"]
]}

###

Experiment: Apparent permeability across apical to basolateral side in human Caco2 cells at 100 uM after 60 mins by lucifer yellow dye-based fluorescence assay
Format: ADME, cell-based
Details: Caco-2
observationType: Papp A→B at 1 h, 100 µM (×10⁻⁶ cm/s)

{"columns": ["compoundSmiles", "readoutUnit", "valueReported"],
 "data": [
  ["CCOCc1cn(-c2ccc(Cl)cc2)nn1", "×10⁻⁶ cm/s", 77.4]
]}

###

Target: P2X purinoceptor 7 (Homo sapiens)
Assay: Antagonist activity at human P2X7 receptor expressed in human THP1 cells assessed as reduction in BzATP-induced pore formation by measuring YO-PRO uptake by FLIPR assay
Format: cell-based

{"columns": ["compoundSmiles", "experimentalSystem", "IC50 / nM"],
 "data": [
  ["Clc1cccc(-n2nnnc2NCc2ccccc2Oc2ccccn2)c1Cl", "P2X purinoceptor 7 (Homo sapiens)", 6.61]
]}

###

System: Peritoneal macrophage
Test: Toxicity in Swiss mouse peritoneal macrophages assessed as LDH release at 10 uM after 60 mins relative to 0.05% Triton X-100
Assay type: cell-based
Details: 1 h
Here, each record is paired with measured Activity data.

{"columns": ["compoundSmiles", "experimentalSystem", "readoutUnit", "Activity"],
 "data": [
  ["CCOCc1cn(-c2ccccc2)nn1", "Peritoneal macrophage", "%", 52.73],
  ["COc1ccc(-n2cc(COC(C)=O)nn2)cc1", "Peritoneal macrophage", "%", 15],
  ["OCc1cn(-c2cc(Cl)cc(Cl)c2)nn1", "Peritoneal macrophage", "%", 30.55],
  ["CCCCOCc1cn(-c2ccc(Cl)cc2)nn1", "Peritoneal macrophage", "%", 30.33],
  ["CCCCOCc1cn(-c2ccc(OC)cc2)nn1", "Peritoneal macrophage", "%", 27.66],
  ["CC(=O)OCc1cnn(-c2ccccc2)n1", "Peritoneal macrophage", "%", 38.5],
  ["O=C(OCc1cnn(-c2ccccc2)n1)c1ccccc1", "Peritoneal macrophage", "%", 36.94],
  ["CCCCOCc1cnn(-c2ccccc2)n1", "Peritoneal macrophage", "%", 27.19],
  ["CCCCOCc1cn(-c2ccccc2)nn1", "Peritoneal macrophage", "%", 32.33],
  ["O=C(OCc1cn(-c2ccc(Cl)cc2)nn1)c1ccccc1", "Peritoneal macrophage", "%", 45.73],
  ["OCc1cn(-c2cc(Cl)ccc2Cl)nn1", "Peritoneal macrophage", "%", 12.09],
  ["CC(=O)OCc1cn(-c2ccccc2)nn1", "Peritoneal macrophage", "%", 36.39],
  ["COc1ccc(-n2cc(COC(=O)c3ccccc3)nn2)cc1", "Peritoneal macrophage", "%", 10.66],
  ["CC(=O)OCc1cn(-c2cc(Cl)cc(Cl)c2)nn1", "Peritoneal macrophage", "%", 45.33],
  ["CCCCOCc1cn(-c2cc(Cl)ccc2Cl)nn1", "Peritoneal macrophage", "%", 11.66],
  ["CCCOCc1cn(-c2ccc(Cl)cc2)nn1", "Peritoneal macrophage", "%", 26.66],
  ["O=Cc1cnn(-c2ccccc2)n1", "Peritoneal macrophage", "%", 41.65],
  ["O=C(OCc1cn(-c2cc(Cl)ccc2Cl)nn1)C1CCCC1", "Peritoneal macrophage", "%", 22.66],
  ["O=C(OCc1cn(-c2cc(Cl)ccc2Cl)nn1)c1ccccc1", "Peritoneal macrophage", "%", 26.66],
  ["O=C(OCc1cn(-c2ccccc2)nn1)c1ccccc1", "Peritoneal macrophage", "%", 58.1],
  ["CC(=O)OCc1cn(-c2ccc(Cl)cc2)nn1", "Peritoneal macrophage", "%", 19.66],
  ["O=C(OCc1cn(-c2cc(Cl)cc(Cl)c2)nn1)c1ccccc1", "Peritoneal macrophage", "%", 24.02],
  ["O=Cc1cn(-c2cc(Cl)ccc2Cl)nn1", "Peritoneal macrophage", "%", 13.73]
]}

Measured values drawn from ChEMBL document CHEMBL4130413 for this set.
